This collection of values is drawn from patent US20250206757A1.

Biological target: GLP-1 Receptor (Homo sapiens)
Sequence (P43220 24-463): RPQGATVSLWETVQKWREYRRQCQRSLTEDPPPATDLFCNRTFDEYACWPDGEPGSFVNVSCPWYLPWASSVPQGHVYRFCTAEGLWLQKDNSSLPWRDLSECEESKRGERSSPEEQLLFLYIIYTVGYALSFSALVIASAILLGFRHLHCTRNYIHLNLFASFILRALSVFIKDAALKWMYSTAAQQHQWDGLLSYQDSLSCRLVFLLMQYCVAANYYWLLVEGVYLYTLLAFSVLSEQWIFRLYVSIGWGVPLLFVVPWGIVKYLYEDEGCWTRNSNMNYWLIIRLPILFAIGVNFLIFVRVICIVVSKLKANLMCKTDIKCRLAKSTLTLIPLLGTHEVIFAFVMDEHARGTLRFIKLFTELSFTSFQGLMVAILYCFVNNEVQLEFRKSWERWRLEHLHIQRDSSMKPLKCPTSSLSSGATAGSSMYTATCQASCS
Test: GLP-1R agonist cAMP stimulation assay (HEK293/GLP1R/CRE-LUC cells, HTRF cAMP dynamic 2 kit)
Conditions: HEK293/CRE-Luc cell line stably expressing the GLP-1 Receptor; 30 min incubation at 37° C.
pEC50: −log10 of the molar value.
quantity.name: pEC50

INSERT INTO results (compound_string, quantity_name, reported_measurement) VALUES
  ('Fc1cc(Cl)cc(F)c1COc1nc2c(cc1C(F)(F)F)CCN(Cc1nc3cc(-c4nnn[nH]4)cnc3n1C[C@@H]1CCO1)C2', 'pEC50', '> 9.00'),
  ('O=C(O)c1ccc2c(nc(CN3CCc4cc(C(F)(F)F)c(OCc5ccc(Cl)cc5F)nc4C3)n2C[C@@H]2CCO2)c1F', 'pEC50', '6.52 to 9.00'),
  ('Cc1cc2c(nc1OCc1ccc(Cl)cc1F)CN(Cc1nc3cc(-c4nnc(C(F)F)[nH]4)cnc3n1C[C@@H]1CCO1)CC2', 'pEC50', '> 9.00'),
  ('O=C(O)c1ccc2c(n1)nc(CN1CCc3cc(C(F)(F)F)c(OCc4ccc(Cl)cc4F)nc3C1)n2C[C@@H]1CCO1', 'pEC50', '6.52 to 9.00'),
  ('Fc1cc(Cl)ccc1COc1nc2c(cc1Cl)CCN(Cc1nc3cc(-c4nnc(C(F)(F)F)[nH]4)nnc3n1C[C@@H]1CCO1)C2', 'pEC50', '> 9.00'),
  ('Fc1cc(Cl)cc(F)c1COc1nc2c(cc1C(F)(F)F)CCN(Cc1nc3cc(-c4nnn[nH]4)ncc3n1C[C@@H]1CCO1)C2', 'pEC50', '> 9.00');
